Assign MIC Coagulase Negative Staphylococcus (GC 6257) to each entry below.
System: Staphylococcus sp.
test.name: in vitro antibacterial evaluation, MIC by broth dilution
Assay type: cell-based
condition.set: broth dilution, 18 hours at 35° C.

Completed entries (count: 3):
| molecule | measured |
| --- | --- |
| CC(c1ccccc1)C1NC(=O)CNC(=O)C(CO)NC(=O)C(CC2CNC(=N)N2C2OC(CO)C(O)C(O)C2O)NC(=O)C(CC2CNC(=N)N2)NC(=O)C(Cc2ccc(OC3OC(CO)C(OC4OC(CO)C(O)C(O)C4OCc4ccc(OCc5ccccc5)cc4)C(O)C3O)cc2)NC1=O (stereo not shown) [Example 246c] | >128 µg/mL |
| CC(c1ccccc1)C1NC(=O)CNC(=O)C(CO)NC(=O)C(C(O)C2CNC(=N)N2C2OC(CO)C(O)C(O)C2O)NC(=O)C(C(O)C2CNC(=N)N2)NC(=O)C(Cc2ccc(OC3OC(CO)C(OC4OC(COCc5ccc(OCc6ccccc6)cc5)C(O)C(O)C4O)C(O)C3O)cc2)NC1=O (stereo not shown) [Example 231] | 0.5 to 1 µg/mL |
| CC(c1ccccc1)C1NC(=O)CNC(=O)C(CO)NC(=O)C(C(O)C2CNC(=N)N2C2OC(CO)C(O)C(O)C2O)NC(=O)C(C(O)C2CNC(=N)N2)NC(=O)C(Cc2ccc(OC3OC(CO)C(OC4OC(CO)C(O)C(O)C4O)C(O)C3O)c(N)c2)NC1=O (stereo not shown) [Example 287] | >64 µg/mL |

// switching to the query molecule
q: I'm curious: which MIC Coagulase Negative Staphylococcus (GC 6257) was measured for CC(c1ccccc1)C1NC(=O)CNC(=O)C(CO)NC(=O)C(C(O)C2CNC(=N)N2C2OC(CO)C(O)C3OC(C)(C)OC32)NC(=O)C(C(O)C2CNC(=N)N2)NC(=O)C(Cc2ccc(OC3OC(CO)C(OC4OC5COC(C)(C)OC5C5OC(C)(C)OC45)C4OC(C)(C)OC34)cc2)NC1=O (stereo not shown) [Example 229b] tested on Staphylococcus sp.?
a: >128 µg/mL

* * *

Tested on: Streptococcus sp.
test.name: in vitro antibacterial evaluation, MIC by broth dilution
Format: cell-based
condition.set: strain GC 4565; broth dilution, 18 hours at 35° C.
Numbered stars: 1 amine (or outer) side, 2 acyl side, 3 side chain; on linkers, the order of the positions; unused ones are H or OH. Square brackets hold non-standard residues; d marks the D form. Peptide text beside a SMILES is read from it. ξ: configuration not given here. X1 = N=C1NCC(C(O)C(N[*:1])C(=O)[*:2])N1C1OC(CO)C(O)C(O)C1O; ξEnduracididine(βξ-OH,4'ξ) = N=C1NCC(C(O)C(N)C(=O)O)N1; Tyr(3-NO2) = N[CH](Cc1ccc(O)c([N+](=O)[O-])c1)C(=O)O; ξPhe(βξ-Me) = CC(c1ccccc1)C(N)C(=O)O
For each record, write down the corresponding MIC Streptococcus pneumoniae (GC 4565).

Each compound below has a recorded value; state its MIC Streptococcus pneumoniae (GC 4565).
1. CC(c1ccccc1)C1NC(=O)CNC(=O)C(CO)NC(=O)C(C(O)C2CNC(=N)N2C2OC(CO)C(O)C(O)C2O)NC(=O)C(C(O)C2CNC(=N)N2)NC(=O)C(Cc2ccc(OC3OC(CO)C(OC4OC5COC(c6ccc(C(=O)O)cc6)OC5C(O)C4O)C(O)C3O)cc2)NC1=O (stereo not drawn)
2. CC(c1ccccc1)C1NC(=O)CNC(=O)C(CO)NC(=O)C(C(O)C2CNC(=N)N2C2OC(CO)C(O)C(O)C2O)NC(=O)C(C(O)C2CNC(=N)N2)NC(=O)C(Cc2ccc(OC3OC(CO)C(OC4OC5COC(c6cccc(Cl)c6)OC5C(O)C4O)C(O)C3O)cc2)NC1=O (stereo not drawn)
3. CC(c1ccccc1)C1NC(=O)CNC(=O)C(CO)NC(=O)C(C(O)C2CNC(=N)N2C2OC(CO)C(O)C(O)C2O)NC(=O)C(C(O)C2CNC(=N)N2)NC(=O)C(Cc2ccc(O)c([N+](=O)[O-])c2)NC1=O (stereo not drawn) [Example 8] (cyclo(G[ξPhe(βξ-Me)][Tyr(3-NO2)][ξEnduracididine(βξ-OH,4'ξ)][X1]S); configuration not given here)

a:
[">64 µg/mL", "<0.06 µg/mL", ">128 µg/mL"]
